# system: T1, Bzz1-1, P38822
# T1 sequence (P38822 478-572, looked up): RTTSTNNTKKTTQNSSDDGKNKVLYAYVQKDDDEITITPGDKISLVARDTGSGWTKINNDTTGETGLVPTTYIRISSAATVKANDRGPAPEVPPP
# test: SPOT array
# measurement-conditions: median of control spots 4446
quantity-kind: SPOT intensity

// known answers, use as guide
SKAKRPKFLLDLQIK :: 1
LKRITSPPLPPRADS :: 0
AAAPKHAPPPVPNET :: 0

1. VPPVPLPFGIPPFPM
2. MARRRLPDRPPNGIG
3. QRKSLRRPTLSKPAV
4. NLPKRKPPKLQGPFS
5. RLPAPPPPPRRGPAP
[in] Arrange these 5 binders in increasing order of SPOT intensity. Thanks in advance for listing the labels in the requested order.
[out] 2, 1, 3, 4, 5

P. FPGKKSPRLPHRNKK
Q. KKIRLIFTYPSTVGR
R. GERSRPLVISILSSA
[in] Hey, quick one: sort these by SPOT intensity, low to high? Please, when replying, give the labels in the order that was requested.
[out] P, Q, R
(P: 0, Q: 2, R: 3)

I. KRNRLKILLPFLEQS
II. LTRRFPFLFPFDTRM
[in] Exercise: compare I and II ; which one has the greater SPOT intensity? Lab note: record the label of whichever item you select.
[out] II
(II: 3, I: 0)
